Kindly supply the reported pIC50 values for the records listed here.
System: KRASmut amplified NSCLC cell lines
Test: Cyquant Direct cell proliferation assay, KRAS mutant amplified NSCLC cell lines
Format: cell-based
Details: KRASmut amplified cells, 0-10 μM, 72 hours
pIC50: −log10 of the molar value.

INSERT INTO assay_data (molecule, experimental_system, quantity_kind, value_reported) VALUES
  ('CN(Cc1cnc2nc(N)nc(N)c2n1)c1ccc(C(=O)N[C@@H](CCC(=O)O)C(=O)O)cc1 [Methotrexate]', 'KRASmut amplified NSCLC cell lines', 'pIC50', '< 5.00');

Form: molecule = `Nc1nc2[nH]cc(CCc3ccc(C(=O)N[C@@H](CCC(=O)O)C(=O)O)cc3)c2c(=O)[nH]1` ; pIC50 = < 5.00
